System: CCRF-CEM leukemia
Procedure text: NCI-60 one-dose screen, 48 h (100 = growth as untreated, 0 = no growth, -100 = all killed)
Measurement parameters: 10 µM
Method: Growth inhibition of the CCRF-CEM human tumor cell line is measured as a screen for anti-cancer activity. Cells are grown in 96 well plates and exposed to the test compound for 48 hours. Compounds are tested at a single concentration, which is 10^-5 M for most compounds. The reported endpoint is percent growth (GI% or GIPRCNT), where numbers from 0 - 100% represent growth inhibition, and numbers from -100% - 0 represent cell death. For example, a value of 40 represents 60% growth inhibition. […]
About 83,000 compounds went through this panel and 20% of them were active in at least one assay; those are over-represented in the sample as a whole.
Label yes (1) when growth is at or above 10%; otherwise label no (0).

- O=C(COc1ccc(NC(=O)Nc2ccc(Cl)cc2)cc1)N=Nc1c(O)[nH]c2ccc([N+](=O)[O-])cc12: no (0)
- O=C(NO)c1ccc(CN2CCN(c3nc(-c4ccccc4)c4ccccc4n3)CC2)cc1: yes (1)
- CC1(c2ccccc2)NC(=O)N(CC(=O)Nc2ccc(C(=O)/C=C/c3ccc(Cl)cc3)cc2)C1=O (configuration not stated): no (0)
- O=C(Nc1cccc(C(F)(F)F)c1)c1cncc(C#Cc2cnc3ccc(N4CCOCC4)nn23)c1: yes (1)
- NC(=Nc1ccc(OCCCCCCCCn2ccnn2)cc1)c1ccccc1: yes (1)
- COC1=C[C@]23CCC(=O)N2CCc2cc4c(cc2[C@@H]3[C@@H]1OC(=O)CCCC(C)C)OCO4: yes (1)
- COc1ccc(/C=C/C(=O)c2ccc(S(=O)(=O)NCCNc3nc(Nc4ccc(F)cc4)nc(N(C)C)n3)cc2)cc1: yes (1)
- CN1CCN(c2ccc(C(=O)/C=C/c3ccc(C#N)cc3)cc2)CC1: yes (1)
- CCOC(=O)N/C(=C1/OCCN1C)[P+](c1ccccc1)(c1ccccc1)c1ccccc1: yes (1)
- CNCc1cccc2c1OCCCCCC[C@@](C)(O)CC1(CC1)S(=O)(=O)c1ccc(cc1)-c1cnc(N)c(n1)C(=O)N2: no (0)
- COc1cccc(/C=N/NC(=O)c2ccc3nc(-c4ccc(Cl)cc4)[nH]c3c2)c1O: no (0)
- CN1CCN(c2ccc(Nc3nc(NCCCNC(=O)c4ccc(Cl)cc4)c4sccc4n3)cc2)CC1: yes (1)
- O=C(CS(=O)(=O)c1oc(-c2ccc(Cl)cc2)nc1S(=O)(=O)c1ccccc1)N1CCCC1: no (0)
- COc1cccc(COc2ccc(/C=C3\Oc4cc(O)ccc4C3=O)cc2)c1: yes (1)
- O=C(Nc1cccc([N+](=O)[O-])c1)Nc1cccc([N+](=O)[O-])c1: yes (1)
- COc1ccc2c3nc4cc(C)c(C)cc4nc3n(CCN(C)C)c2c1: yes (1)
- O=C(NO)c1ccc(CNC(=O)[C@H]2Cc3c([nH]c4ccccc34)[C@H](c3ccccc3)N2)cc1: yes (1)
- C=C(C)[C@@H]1CC[C@]2(C(=O)OC)CC[C@]3(C)[C@H](CC[C@@H]4[C@@]5(C)CC[C@H](N)C(C)(C)[C@@H]5CC[C@]43C)[C@@H]12: no (0)
- N#Cc1c(NC(=O)c2ccc(C(F)(F)F)cc2)sc2c1CCC(=O)C2: no (0)
- CN1CCN(c2ccc(Nc3nc(NCCCNC(=O)c4ccc(F)cc4)c4sccc4n3)cc2)CC1: yes (1)
- CN1C(=O)N(C)C2SC(N/N=C/c3ccccc3)=NC21 (configuration not stated): yes (1)
- COc1cc(C2CC(c3ccccc3)=Nc3c(N)nc(N)nc3N2)ccc1Oc1nc(Nc2ccc(F)cc2)nc(N(C)C)n1 (configuration not stated): yes (1)
- Cc1cccc(NC(=O)CSc2nc3ccc(F)cc3c(=O)n2-c2ccc(Cl)cc2)c1C: yes (1)
- Cc1ccc(CSc2nc(-c3ccc(F)cc3)c(C#N)c(=O)[nH]2)cc1: yes (1)
- Cc1ccc(C(=O)NCCCNc2nc(Nc3ccc(N4CCN(C)CC4)cc3)nc3ccsc23)cc1: no (0)
- O=c1oc2ccccc2cc1-c1csc(N=Nc2c(O)[nH]c3ccc(Br)cc23)n1: yes (1)
- COc1ccc2[nH]c(=O)c(CSc3ccc(Nc4nccc(-c5ccc(Cl)cc5)n4)cc3)cc2c1: yes (1)
- CN(C)c1nc(NCCNS(=O)(=O)c2ccc(C(=O)/C=C/c3ccccc3)cc2)nc(Nc2ccc(F)cc2)n1: yes (1)
- CCCn1c(=O)c2[nH]c(-c3ccc(OCc4nc5ccc(C#N)cc5[nH]4)cc3)nc2n(CCC)c1=O: yes (1)
- CC(=O)c1cc(C(=O)c2ccc3c(c2)NC(=O)CO3)n2ccc3ccccc3c12: yes (1)
- CC(C)C(=O)Nc1ccc(C(=O)NC(=S)Nc2ccc(C(=O)O)cc2)cc1: yes (1)
- Brc1ccc(N/N=C/c2c[nH]c3ccccc23)nc1: no (0)
- Cc1ccc(-c2ccc(SCC(=O)Nc3ccc(S(N)(=O)=O)cc3Br)nn2)cc1: yes (1)
- CC(C)CCSc1nc(NC2CC2)c(C#N)c(-c2ccc(C(C)C)cc2)n1: yes (1)
- Cc1ccc2nc(-c3ccc(-c4nnc(SCC(=O)Nc5ccc(Br)cc5)o4)cc3)[nH]c2c1: yes (1)
- CN1CCCN(Cc2ccc(C(=O)Nc3cccc(Nc4ccc5cc(O)ccc5n4)c3)cc2C(F)(F)F)CC1: no (0)
- CN1C(=O)N(C)C2SC(N/N=C/c3ccccc3F)=NC21 (configuration not stated): yes (1)
